# System: skin (forearm of panelists)
# RUN_DESCRIPTION: Moisturizing effect on skin: skin conductance (SKICON200-EX) on forearm of panelists
# Format: in vivo, human
# STATED_CONDITIONS: 100 μl of 5% aqueous solution on washed forearm, ten panelists; conductance changing ratio before vs 20 minutes after application
MEASUREMENT_NAME: Moisturizing effect on skin

Some compounds with recorded Moisturizing effect on skin:
| COMPOUND | MEASUREMENT_NAME | TEST_RESULT |
| --- | --- | --- |
| O=C([O-])CC[C@H](NCC(O)CO)C(=O)[O-].[Na+].[Na+] (stereo partly drawn) [Glyceryl derivative of glutamic acid, sodium N-glycerylglutamate] | Moisturizing effect on skin | ⊚ |
| Cl.O=C(O)[C@H](Cc1c[nH]cn1)NCC(O)CO (stereo partly drawn) [Glyceryl derivative of histidine, M-glycerylhistidine hydrochloride] | Moisturizing effect on skin | ⊚ |
| N[C@@H](CC(=O)[O-])C(=O)[O-].O.[Na+].[Na+] [Sodium aspartate hydrate] | Moisturizing effect on skin | Δ |
| Cl.N=C(N)NCCC[C@H](NCC(O)CO)C(=O)O (stereo partly drawn) [Glyceryl derivative of arginine, N-glycerylarginine hydrochloride] | Moisturizing effect on skin | ⊚ |
| Cl.N[C@@H](Cc1cnc[nH]1)C(=O)O [Histidine hdrochloride] | Moisturizing effect on skin | Δ |

Report Moisturizing effect on skin for each item below.
1. CC(O)CCO (stereo not drawn)
2. Cl.NCCCC[C@H](N)C(=O)O [Lysine hydrochloride]
3. Cl.NCCCC[C@H](NCC(O)CO)C(=O)O (stereo partly drawn) [Glyceryl derivative of lysine, N-glyceryllysine hydrochloride]
4. NCC(=O)O
5. O=C(O)[C@@H]1CCCN1

A)
["Δ", "Δ", "⊚", "Δ", "Δ"]

Origin of values: patent US20060018864A1
